Experiment: Plasma pharmacokinetics of vinorelbine and deacetylvinorelbine after oral vinorelbine in CES2-modified mice
Format: in vivo, mouse
Run Parameters: male, mouse, plasma, po, 10 mg/kg, male Ces2^–/– mice; oral vinorelbine 10 mg/kg; plasma; read-out: AUC0-4h
Measurement Name: AUC(0-t) (ng·h/mL)
One number for each entry, in ng·h/mL.

Memo: CCC1=C[C@@H]2CN(C1)Cc1c([nH]c3ccccc13)[C@@](C(=O)OC)(c1cc3c(cc1OC)N(C)[C@H]1[C@@](O)(C(=O)OC)[C@H](OC(C)=O)[C@]4(CC)C=CCN5CC[C@]31[C@@H]54)C2 [Vinorelbine, reference compound] , reported AUC(0-t): 491

====

Experiment: Tissue concentrations of vinorelbine and deacetylvinorelbine 4 h after oral vinorelbine in CES2-modified mice
Type: in vivo, mouse
Run Parameters: male, mouse, small intestine tissue, oral, 10 mg/kg, male wild-type mice, oral vinorelbine 10 mg/kg, read-out: CSI (small intestine tissue concentration)
Method: For capecitabine 2-h experiments, 6–7 female mice received oral capecitabine (500 mg/kg, 10 μL/g), and tail vein blood samples were collected at 0.125, 0.25, 0.5 and 1 h after drug administration. […] Concentrations of capecitabine (and its metabolites) and vinorelbine (and its metabolite) in mouse plasma samples and organ homogenates were determined using two independent validated high-performance liquid chromatography-tandem mass spectrometry assays. […]
Measurement Name: concentration at 4 h
Provide a numeric answer, followed by its unit.

Memo: CCC1=C[C@@H]2CN(C1)Cc1c([nH]c3ccccc13)[C@@](C(=O)OC)(c1cc3c(cc1OC)N(C)[C@H]1[C@@](O)(C(=O)OC)[C@H](OC(C)=O)[C@]4(CC)C=CCN5CC[C@]31[C@@H]54)C2 [Vinorelbine, reference compound] , reported concentration at 4 h: 10800 ng/g

====

Experiment: Tissue concentrations of capecitabine and its metabolites 2 h after oral capecitabine in CES2-modified mice
Type: in vivo, mouse
Run Parameters: female Ces2^–/–A mice, oral capecitabine 500 mg/kg
Assignment: determine reported Liver concentration ratio (metabolite/capecitabine) for the given compounds.
Answers are plain numbers.

See these solved cases before continuing.
INSERT INTO assay_data (compound, result_value) VALUES
  ('O=c1[nH]cc(F)c(=O)[nH]1 [5-FU, 5-fluorouracil, reference compound]', 0.52),
  ('NCC(F)C(=O)O (stereo not shown)', 25),
  ('C[C@H]1O[C@@H](n2cc(F)c(N)nc2=O)[C@H](O)[C@@H]1O', 8.8);

Proceed to the following item.
Memo: C[C@H]1O[C@@H](n2cc(F)c(=O)[nH]c2=O)[C@H](O)[C@@H]1O , reported Liver concentration ratio (metabolite/capecitabine): 0.66

====

Experiment: Plasma pharmacokinetics of vinorelbine and deacetylvinorelbine after i.v. vinorelbine in CES2-modified mice
Run Parameters: male, mouse, plasma, iv, 10 mg/kg, AUC0-4h, male Ces2^–/–A mice; i.v. vinorelbine 10 mg/kg
Measurement Name: AUC(0-t) (ng·h/mL)
Give bare numbers, in ng·h/mL.

Memo: CCC1=C[C@@H]2CN(C1)Cc1c([nH]c3ccccc13)[C@@](C(=O)OC)(c1cc3c(cc1OC)N(C)[C@H]1[C@@](O)(C(=O)OC)[C@H](OC(C)=O)[C@]4(CC)C=CCN5CC[C@]31[C@@H]54)C2 [Vinorelbine, reference compound] , reported AUC(0-t): 5950
